Where these numbers come from: ChEMBL document CHEMBL3627659

Would you mind telling me the reported pKi of each entry?
Quick note: pKi means taking -log10 of the concentration in moles per liter.

Provide the documented pKi with Rhodesain (Trypanosoma brucei rhodesiense, UniProt Q95PM0) as the system for C=CCOC(=O)N[C@@H](CC(C)C)C(=O)N1C[C@@H]2ON=C(Br)[C@@H]2C1
Sequence (Q95PM0 whole entry): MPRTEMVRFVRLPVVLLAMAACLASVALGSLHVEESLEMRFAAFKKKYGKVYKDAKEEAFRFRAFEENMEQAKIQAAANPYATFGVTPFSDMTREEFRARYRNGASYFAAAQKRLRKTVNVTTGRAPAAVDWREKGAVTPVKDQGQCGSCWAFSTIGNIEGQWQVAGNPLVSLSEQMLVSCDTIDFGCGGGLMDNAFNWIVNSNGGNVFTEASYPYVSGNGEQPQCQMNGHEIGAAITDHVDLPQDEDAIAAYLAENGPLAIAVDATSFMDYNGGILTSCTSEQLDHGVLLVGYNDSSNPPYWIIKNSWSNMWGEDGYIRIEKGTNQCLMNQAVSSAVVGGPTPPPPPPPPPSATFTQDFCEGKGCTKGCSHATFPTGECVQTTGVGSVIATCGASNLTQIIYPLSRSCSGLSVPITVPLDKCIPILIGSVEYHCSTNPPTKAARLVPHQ
5.04

Provide the documented pKi with Rhodesain (Trypanosoma brucei rhodesiense, UniProt Q95PM0) as the system for C=CCOC(=O)N[C@@H](Cc1ccccc1)C(=O)N1CC2ON=C(Br)C2C1 (mixture of isomers)
4.78

Provide the documented pKi with Rhodesain (Trypanosoma brucei rhodesiense, UniProt Q95PM0) as the system for C=CCOC(=O)N[C@@H](CC(C)C)C(=O)N1CC2ON=C(Br)C2C1 (mixture of isomers)
5.08

Provide the documented pKi with Rhodesain (Trypanosoma brucei rhodesiense, UniProt Q95PM0) as the system for CC(C)C[C@H](NC(=O)OC(C)(C)C)C(=O)N1CC2ON=C(Br)C2C1 (mixture of isomers)
4.87

Provide the documented pKi with Rhodesain (Trypanosoma brucei rhodesiense, UniProt Q95PM0) as the system for C=CCOC(=O)N[C@@H](CCc1ccccc1)C(=O)N1C[C@@H]2ON=C(Br)[C@@H]2C1
5.47
